measurement description: Toxicity liver stage against HepG2, at 10uM
Format: cell-based
Set-up: test concentration 10 uM, cell line HepG2-A16-CD81EGFP
recorded conditions: human, HepG2-A16-CD81EGFP cells; read-out: INHIBITION
reported metric: cytotoxicity at 10 µM (%)

>  <compound>
CCc1ccc(C(=O)N2CCCCC2Cn2cccn2)o1 (configuration not stated)

>  <meas value>
-6.8

$$$$
>  <compound>
COCCC1(CNC(=O)NCC2CN(C)CCN2C)CCC1 (configuration not stated)

>  <meas value>
6.35

$$$$
>  <compound>
CC(C)C(C)N(C(=O)Cn1nc2n(c1=O)CCCCC2)C1CC1 (configuration not stated)

>  <meas value>
-5.77

$$$$
>  <compound>
CCn1cc2c(n1)C(COC)CN(C(=O)c1ccccn1)C2 (configuration not stated)

>  <meas value>
2.61

$$$$
>  <compound>
Cc1cccn2c(CNC(C)CCc3ccc(O)cc3)cnc12 (configuration not stated)

>  <meas value>
1.95

$$$$
>  <compound>
CC(=O)N(C)c1nc(CN2CCCC2c2cnn(C)c2)cs1 (configuration not stated)

>  <meas value>
-16.1

$$$$
>  <compound>
COc1ccc(Cn2cc(C(=O)N(C)Cc3ccon3)nn2)cc1

>  <meas value>
5.61

$$$$
>  <compound>
Cc1nccn1-c1ccc(=O)n(CCNC(=O)c2c(F)cccc2Cl)n1

>  <meas value>
-9.98

$$$$
>  <compound>
CC(C)(NCc1cccc(O)c1)c1ccc2c(c1)OCO2

>  <meas value>
5.12

$$$$
>  <compound>
CCS(=O)(=O)Cc1nc(-c2cnn3c(C)cc(C)nc23)no1

>  <meas value>
-4.79

$$$$
>  <compound>
O=S1(=O)CCC(NCCn2cncc2-c2ccc3c(c2)CCCO3)C1 (configuration not stated)

>  <meas value>
2.97

$$$$
>  <compound>
Cc1ccccc1C(=O)N1C[C@@H]2OCCN(c3ncccn3)[C@@H]2C1

>  <meas value>
29.5

$$$$
